assay: DSC, chain melting transition of DMPC; type: physicochemical; conditions: DMPC/peptide 100:1 (mol/mol); enthalpy of the transition
measurement.label: ΔHCM (kcals/mol)
Quick note: give the figure in kcals/mol, leave out the unit.

Completed entries (count: 3):
substance | ΔHCM (kcals/mol)
Ac-DWLKAFYDKFFEKFKEFF-NH2 [Peptide 6F] | 4.0
Ac-DWLKAFYDKVAEKLKEAF-NH2 [Peptide 2F] | 4.5
Ac-DWFKAFYDKFFEKFKEFF-NH2 [Peptide 7F] | 4.5

Okay, now this substance:
The recorded ΔHCM (kcals/mol) for entry Ac-DWLKAFYDKVFEKFKEFF-NH2 [Peptide 5F] equals 4.9
